Tested on: SR
Test: NCI tumour cell line growth inhibition, 48 h
The source made the active and inactive calls. Rule as the data show it: active = GI50 up to about 1.1 µM and inactive = higher.
Outcome codes: active, inactive

>>> df
                                    compound  class_name
 0  O=C1/C(=C/c2cccnc2)C(n2cccc2)c2c(Br)sc(Br)c21 (configuration not stated)    inactive
 1  C[N+]1([O-])C2CCC1CC(OC(=O)C(CO)c1ccccc1)C2 (configuration not stated)    inactive
 2  Cc1cc2c(cc1C)[n+]([O-])c(C(=O)/C=C/c1ccccc1[N+](=O)[O-])c(C)[n+]2[O-]    inactive
 3  COc1ccc2c(c1)C(=O)CC(N)C2 (configuration not stated)    inactive
 4  COC(=O)c1c(OC(C)=O)ccc2c1c1c(OC(C)=O)c3ccccc3c(OC(C)=O)c1n2C    inactive
 5  O=P1(N(CCCl)CCCl)NCCCO1 (configuration not stated) [CYCLOPHOSPHAMIDE ANHYDROUS]    inactive
 6  C=CCC12CC(=O)C=C1CCC1(C2)OCCO1 (configuration not stated)    inactive
 7  Cc1ccccc1NC(=O)C(=O)CC(=O)c1c(C)[n+]([O-])c2ccccc2[n+]1[O-]      active
 8  CC(CNCCCNCCNCCCNCO)[N+](=O)[O-] (configuration not stated)    inactive
 9  Clc1ccc2nc3c(c(-c4ccccc4)nn3-c3ccccc3)c(-c3ccccc3)c2c1    inactive
10  CC(=O)NC(Cc1c[nH]cn1)C(=O)N1CCCC1C(N)=O (configuration not stated)    inactive
11  COC1OC(C)C(NC(=O)OCC(Cl)(Cl)Cl)C2OC(C)(C)OC12 (configuration not stated)    inactive
12  CC(=O)Nc1ccc(/C=C2/NC(=S)N(/C=C3\C(=O)Oc4ccccc4C3=O)C2=O)cc1    inactive
13       CCOP(=O)(CN=C(c1ccccc1)c1ccccc1)OCC    inactive
14  O=C1C(/C=N/CCc2c[nH]c3ccccc23)C(C(F)(F)F)=NN1c1nc2ccccc2s1 (configuration not stated)    inactive
15  CCCCCCCCCCCCCCC1OC(=O)c2ccccc21 (configuration not stated)    inactive
16  O=C1/C(=C\c2cccc(Oc3ccccc3)c2)SC(c2ccccc2)N1c1ccccc1Cl (configuration not stated)    inactive

====

Quick reference for GI50 among some molecules
Tested on: 786-0
Assay: NCI tumour cell line growth inhibition, 48 h
The source made the active and inactive calls. No stated cut-off is given here; in the data, active = GI50 up to about 1.1 µM and inactive = higher. Where a SMILES comes first, the peptide text is derived from it. Non-standard residues stand in square brackets, D forms with d. Residues, ends and D or L forms follow the SMILES beside them. The star is where a group is joined. ξ: configuration not given here. *: point of attachment. NMeF = CN[C@@H](Cc1ccccc1)C(=O)O; NMeN = CN[C@@H](CC(N)=O)C(=O)O; NMeV = CN[C@H](C(=O)O)C(C)C; ξNMeV = CNC(C(=O)O)C(C)C; Cbz = O=C(OCc1ccccc1)*; Boc = CC(C)(C)OC(=O)*; ξNMeA = CNC(C)C(=O)O; ξV = CC(C)C(N)C(=O)O

molecule	GI50
COc1c2c(c3c(c1OC)c(=O)c1ccccc1n3C)OCO2	> 100 µM (inactive)
CC(C)(C)OC(=O)N1C(OP(=O)(Oc2ccccc2)Oc2ccccc2)=CSc2ccccc21	45.5 µM (inactive)
CCOC(=O)CCC(NC(=O)CNC(=O)CNC(=O)C(CCC(=O)OCC)NC(=O)C(CCC(=O)OCC)NC(=O)C(CCC(=O)OCC)NC(=O)OCc1ccccc1)C(=O)NC(CCC(=O)OCC)C(=O)NC(CCC(=O)OCC)C(=O)OCC (stereo unspecified) (Cbz-E(OEt)E(OEt)E(OEt)GGE(OEt)E(OEt)E(OEt)-OEt; configuration not given here)	> 75 µM (inactive)
CN(C)CCCOc1nc2c(c(=O)n(C)c(=O)n2C)n1C.SC1=NC=NC2=NC=NC12	2.41 µM (inactive)
COC(=O)C(C)N(C)C(=O)[C@H](CC(N)=O)N(C)C(=O)[C@@H]1CCCN1C(=O)[C@H](C(C)C)N(C)C(=O)C(C(C)C)N(C)C(=O)[C@H](Cc1ccccc1)N(C)C(=O)C(NC(=O)OC(C)(C)C)C(C)C (stereo partly specified) (Boc-[ξV][NMeF][ξNMeV][NMeV]P[NMeN][ξNMeA]-OMe)	17.6 µM (inactive)
COc1ccc(/C=N/n2c(-c3ccccc3)n[nH]c2=O)c(OC)c1	30.5 µM (inactive)

====

Tested on: DMS-114
Assay: NCI tumour cell line growth inhibition, 48 h
The source made the active and inactive calls. No stated cut-off is given here; in the data, active = GI50 up to about 1.1 µM and inactive = higher. Non-standard residues stand in square brackets, D forms with d. Residues, ends and D or L forms follow the SMILES beside them. ξ: configuration not given here. *: point of attachment. NMeF = CN[C@@H](Cc1ccccc1)C(=O)O; NMeN = CN[C@@H](CC(N)=O)C(=O)O; NMeV = CN[C@H](C(=O)O)C(C)C; ξNMeV = CNC(C(=O)O)C(C)C; Boc = CC(C)(C)OC(=O)*; ξNMeA = CNC(C)C(=O)O; ξV = CC(C)C(N)C(=O)O
Outcome codes: active, inactive

molecule	class name
Cc1cc(Cl)ccc1N1C(=O)C(=O)C(c2nc3ccccc3s2)C(=O)C1=O	inactive
CC(=O)Nc1ccc(/C=C(\NC(=O)c2ccccc2)c2nc3ccc4c(c3[nH]2)C(=O)c2ccccc2C4=O)cc1	inactive
CN(C)CCCNC(=O)N/N=C/c1ccccc1	inactive
COC(=O)C12OCC34C(CC5C(C)C6=CC(=O)OC6=CC5(C)C3C(O)C1O)OC(=O)C(OC(C)=O)C24 (configuration not stated)	inactive
c1ccc2c(c1)NCc1cc3ccccc3nc1O2	inactive
Clc1ccc(SC(/C=C/NNC2=NN=C(c3ccccc3)C(c3ccccc3)N2)c2ccccc2)cc1 (configuration not stated)	inactive
CC(=O)SCCC1c2[nH]c3ccccc3c2CCN1O (configuration not stated)	inactive
COc1cc2c(oc(=O)c3cc(C)cc(OC)c32)c2c(C3OC(C)C(O)C(C)(O)C3O)ccc(O)c12 (configuration not stated)	active
CC(CNCCCNCCNCCCNCO)[N+](=O)[O-] (configuration not stated)	inactive
CC1=NN(C(=O)Cc2ccccc2)C(=O)/C1=C\c1cccc(O)c1	inactive
O=S1(=O)CCCS(=O)(=O)C(c2ccccc2)=C1c1ccccc1	inactive
Nc1ncnc2c(C3OC(CO)C(O)C3O)c[nH]c12 (configuration not stated)	active
Cc1nnc2n1N=C(c1ccccc1)C(c1ccccc1)S2 (configuration not stated)	inactive
CC(=O)CN(Cc1cc(C)c2c(c1)c1ccccc1n2Cc1ccccc1)S(=O)(=O)c1ccc(C)cc1	inactive
Cc1cc(NC(=O)NC(=O)c2ccccc2[N+](=O)[O-])ccc1Oc1ncc(Cl)cn1	active
O=C(O)c1ccc(Nc2c3ccccc3nc3ccccc23)cc1	inactive
COc1ccc(NC(=O)CSc2nnc(-c3ccc(NC(C)=O)cc3)o2)cc1	inactive
Cc1ccc(N2C(=O)C(Cl)=C(Cl)C2=O)cc1	inactive
CC(=O)n1c2c(c(=O)n1-c1ccccc1)[S+]([O-])CCC2 (configuration not stated)	inactive
COC(=O)C(C)N(C)C(=O)[C@H](CC(N)=O)N(C)C(=O)[C@@H]1CCCN1C(=O)[C@H](C(C)C)N(C)C(=O)C(C(C)C)N(C)C(=O)[C@H](Cc1ccccc1)N(C)C(=O)C(NC(=O)OC(C)(C)C)C(C)C (some centres not stated) (Boc-[ξV][NMeF][ξNMeV][NMeV]P[NMeN][ξNMeA]-OMe)	inactive
COC1CC(Br)(C#N)C1 (configuration not stated)	inactive
CC(=O)OCCOCNC(=S)N/N=C(\C)c1cccs1	inactive
C[C@]12CCC(=O)C=C1CC[C@@H]1C2CC[C@]2(C)c3nn(-c4ccccc4)nc3CC12 (some centres not stated)	inactive
O=C(NO)c1ccc([N+](=O)[O-])cc1	inactive
O=C1NC(=O)C(CCO)(c2ccccc2)C(=O)N1	inactive
NC1=NN(c2ccccc2)C(=O)C1C(=O)C(=O)NC1C2CC3CC(C2)CC1C3 (configuration not stated)	inactive
CC(=O)/C(=C\c1ccccc1O)C(=O)Nc1ccccc1C	inactive

====

System: MCF7
Assay: NCI tumour cell line growth inhibition, 48 h
Calls of active or inactive are those of the source. No stated cut-off is given here; in the data, active = GI50 up to about 1.1 µM and inactive = higher. Where a SMILES comes first, the peptide text is derived from it. Non-standard residues stand in square brackets, D forms with d. Residues, ends and D or L forms follow the SMILES beside them. The star is where a group is joined. ξ: configuration not given here. *: point of attachment. NMeF = CN[C@@H](Cc1ccccc1)C(=O)O; NMeN = CN[C@@H](CC(N)=O)C(=O)O; NMeV = CN[C@H](C(=O)O)C(C)C; ξNMeV = CNC(C(=O)O)C(C)C; Cbz = O=C(OCc1ccccc1)*; Boc = CC(C)(C)OC(=O)*; ξNMeA = CNC(C)C(=O)O; ξV = CC(C)C(N)C(=O)O
Outcome codes: active, inactive

molecule	target entity	class name
COc1c(-c2nc3ccc(N4CCN(C)CC4)nc3[nH]2)cc(OC)c2[nH]c(COC(C)=O)nc12	MCF7	inactive
CCCCC(=C=C1CCCCC1O)C1CCCN1C(=O)OC(C)(C)C (stereo unspecified)	MCF7	inactive
Nc1ncnc2c(C3OC(CO)C(O)C3O)c[nH]c12 (stereo unspecified)	MCF7	active
CC(C)C1=CC23CCC4C(C)(C(=O)O)CCCC4(C)C2CC1C1C(=O)N(c2ccccc2N2C(=O)C4C5CC6C7(C)CCCC(C)(C(=O)O)C7CCC6(C=C5C(C)C)C4C2=O)C(=O)C13 (stereo unspecified)	MCF7	inactive
COC1OC(C)C(NC(=O)OCC(Cl)(Cl)Cl)C2OC(C)(C)OC12 (stereo unspecified)	MCF7	inactive
CCOC(=O)CCC(NC(=O)CNC(=O)CNC(=O)C(CCC(=O)OCC)NC(=O)C(CCC(=O)OCC)NC(=O)C(CCC(=O)OCC)NC(=O)OCc1ccccc1)C(=O)NC(CCC(=O)OCC)C(=O)NC(CCC(=O)OCC)C(=O)OCC (stereo unspecified) (Cbz-E(OEt)E(OEt)E(OEt)GGE(OEt)E(OEt)E(OEt)-OEt; configuration not given here)	MCF7	inactive
N#Cc1c(-c2ccccc2)c(C#N)c(=S)n(C2OCC(O)C(O)C2O)c1N (stereo unspecified)	MCF7	inactive
Cc1ccc(/C=C2\NC(=S)N(CN3CCCCC3)C2=O)cc1	MCF7	inactive
COc1ccc(N2C(=O)/C(=C\c3cccc(Oc4ccccc4)c3)SC2c2ccccc2)cc1 (stereo unspecified)	MCF7	inactive
O=c1ccn(C2OC(CO)C(O)C2F)c(=O)n1Cc1ccccc1 (stereo unspecified)	MCF7	inactive
Cc1ccc(C#CS(=O)(=O)C(F)(F)F)cc1	MCF7	inactive
CN(CCCN1CCCC1)CCCN(C)C(=O)Cc1ccc(Cl)c(Cl)c1	MCF7	inactive
COC(=O)C(C)N(C)C(=O)[C@H](CC(N)=O)N(C)C(=O)[C@@H]1CCCN1C(=O)[C@H](C(C)C)N(C)C(=O)C(C(C)C)N(C)C(=O)[C@H](Cc1ccccc1)N(C)C(=O)C(NC(=O)OC(C)(C)C)C(C)C (stereo partly specified) (Boc-[ξV][NMeF][ξNMeV][NMeV]P[NMeN][ξNMeA]-OMe)	MCF7	inactive
N#CSC1CCCCNC1=O (stereo unspecified)	MCF7	inactive
CC(C(=O)NCCNC(=O)CCCC(=O)N(C)O)C(=O)NCCNC(=O)CCCC(=O)N(C)O	MCF7	inactive
O=C1C(/C=N/CCc2c[nH]c3ccccc23)C(C(F)(F)F)=NN1c1nc2ccccc2s1 (stereo unspecified)	MCF7	inactive
CC(CC(=O)O)(CC(=O)O)c1ccccc1	MCF7	inactive
O=C(O)C1CC(O)CN1 (stereo unspecified)	MCF7	inactive
O=C/C(=C1/C=Cc2cc([N+](=O)[O-])ccc2S1)c1ccccc1	MCF7	inactive
O=C(N/N=C/c1ccc(Br)cc1)N/N=C/c1ccc(Br)cc1	MCF7	inactive
O=C1CC2(CCCc3sccc32)C(=O)N1 (stereo unspecified)	MCF7	inactive
CC(C)SC(NC(=O)C1C(C)(C)CCC1(C)C)C(=O)O (stereo unspecified)	MCF7	inactive
CCSc1[nH]c(NC(=S)NC(=O)c2ccccc2Cl)c(C(N)=O)c1C(N)=O	MCF7	inactive
CSCCC(NC(=O)OCc1ccccc1)P(=O)(O)c1ccccc1 (stereo unspecified)	MCF7	inactive
CC(=O)OCC1OC(n2c(S)nc(-c3ccccc3)c(C#N)c2=O)C(OC(C)=O)C(OC(C)=O)C1OC(C)=O (stereo unspecified)	MCF7	inactive
CC1=CC(=O)/C(=C/N2CCNC2=S)C(=O)O1	MCF7	inactive
COC(=O)/C(=C/c1ccc(OC)cc1)c1cc(OC)c(OC)c(OC)c1	MCF7	active
CC1=NN(C(=O)c2ccccc2O)C(=O)/C1=C/c1c(O)ccc2ccccc12	MCF7	inactive
CC1(C)CC(=O)C2=C(C1)NC(SCC(=O)O)=C(C#N)C2c1ccc(Br)cc1 (stereo unspecified)	MCF7	inactive
COc1cccc2c1C(=O)c1c(O)c3c(c(O)c1C2=O)C[C@@](O)(C(=O)CO)C[C@@H]3OC1CC2C(OCN3CN2COC2C(C)OC(O[C@H]4C[C@](O)(C(=O)CO)Cc5c(O)c6c(c(O)c54)C(=O)c4c(OC)cccc4C6=O)CC23)C(C)O1 (stereo partly specified)	MCF7	active
O=C(O)c1ccc(Nc2c3ccccc3nc3ccccc23)cc1	MCF7	inactive
Cn1[nH]nn/c1=N\N=C\c1ccccc1	MCF7	inactive
N#Cc1cc(-c2nc3cc(F)ccc3s2)ccc1N	MCF7	active
CC[C@]1(Cc2ccc(OC)c(OC)c2)C=[N+]([O-])O[C@H](OC2CCCC2(c2ccccc2)c2ccccc2)[C@@H]1OC(C)=O (stereo partly specified)	MCF7	inactive
CC(C)N1[C@@H]2CCCC[C@H]2N(C(C)C)P1(=O)C(=O)/C=C/c1ccccc1	MCF7	inactive
C/C(=N/S(=O)(=O)c1ccc(Cl)c(Cl)c1)OCC(C)(C)C	MCF7	inactive
